target: Human IgG (HIgG) (human); assay: batch adsorption isotherm, PBS pH 7.4, peptide resin 0.1 meq/g, double reciprocal curve
pKd: −log10 of the molar value. No end group written: not given here.
READOUT TYPE: pKd

In [3]: df
Out[3]:
                                   binder  test_value
0  WHWRKRA-{Toyopearl AF‑Amino‑650 resin}        5.61

a. HWRGWVA-{Toyopearl AF‑Amino‑650 resin}
b. YYWLHHA-{Toyopearl AF‑Amino‑650 resin}
Data request: Could you check which of a and b has a smaller value for pKd? Your choice should be expressed through its label.
Data returned: a
(a: 5.55, b: 6.67)
